# procedure_text: NCI Yeast Anticancer Drug Screen. Data for the mlh1 rad18 strain (AID 175)
# condition_label: S. cerevisiae mlh1 rad18 strain growth inhibition; at 50.0 µM; active compounds read high
This is part of a sample that, as a whole, favours compounds with a hit. Of some 79,000 tested, about 15% had one in any assay.
Entries are grouped by growth inhibition into these classes: c1 (below 60%), c2 (60% to below 90%), c3 (90% or more)

C=C(Br)CN(CC)CC: c1

Which category fits this record: CNc1ccc(F)cc1SSc1cc(F)ccc1NC c3

What would you report for O=C1CCCCO1 ? c1

And then CC1C2CC(C(S(=O)(=O)N3CCOCC3)/C2=N\O)C1(C)C (stereo not given) , what is it? c2

Proceed to CC(=O)Oc1ccc(C23CC4CC(CC(C4)C2)C3)cc1 c3

And what about the compound Cc1ccccc1Sc1ncnc2ccccc12 ? c2

Next record, please: Clc1cc[c]([Sn]([Cl])([O][Sn]([Cl])([c]2ccc(Cl)cc2)[c]2ccc(Cl)cc2)[c]2ccc(Cl)cc2)cc1 c3

Next record, please: O=C1C(=O)c2cc(Cl)ccc2-c2ccc(Cl)cc21 c3

Also COc1cc2c[n+](C)c3c4cc(OC)c(OCc5ccccc5)cc4c(OCc4ccccc4)cc3c2cc1OC ? c2

One more compound: N#CC(/C=C/c1ccccc1)(NO)Nc1cccc(Cl)c1 (stereo not given) c3

Likewise for C#CCNC(C)(C)C ? c3

Please answer likewise for O=C(CCCCOCCCCC(=O)OCC1CCCO1)OCC1CCCO1 (stereo not given) c1
